# Assay details: protein stability index of a GFP-peptide fusion (GPS, HEK-293T) (PSI 1-6); higher = more stable;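 note: 24-mer peptide tiles fused after GFP, lentivirally expressed, FACS-sorted into six equal bins by GFP/DsRed ratio, decoded by Illumina sequencing, PSI is the read-weighted mean bin number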
# Particulars: treatment: MLN4924 1 uM, 8 h; c terminus: a fixed tail appended
protein stability index reference
Measured parameter: protein stability index

>>> result_number("RYNDFVVFQEMLLHKFPYRMVPAL [SNX8]")
2.22
>>> result_number("IRSFGHFIARLQGSILQFNPEVGI [SMG5]")
2.35
>>> result_number("QEPDFIDDIEEKTPISNEVEMESE [KMT2E]")
5.43
>>> result_number("NDKFSFHEVKDNYIPVIKRALNSV [RHOBTB3]")
2.41
>>> result_number("FSSQKLKCLSMFPHYICTLKQPHL [PNLIPRP1]")
2.17
>>> result_number("KKVLNLLKGAFPARLKKVLIVGAP [PTPN9]")
2.99
>>> result_number("EVTVQRNCCLTLCNFSIPEELEFQ [ZER1]")
2.59

----------
protein stability index reference
# Assay details: protein stability index of a GFP-peptide fusion (GPS, HEK-293T) (PSI 1-6); higher = more stable
# Particulars: treatment: MLN4924 1 uM, 8 h; c terminus: a fixed tail appended
Measured parameter: protein stability index

>>> result_number("ASTPTPDDKLFQKLAKVYSYAHGW [CPN1]")
2.33
>>> result_number("LLNTDLHGHNIGKKMSCQQFIANL [PSD2]")
2.46
>>> result_number("VPQLVTGRCATRAFHRKSHSLDLN [RNF180]")
2.6
>>> result_number("LAQAAGFAPQTGARPSETFARFCK [DNAAF3]")
3.57
>>> result_number("LRDTYKLWVPQPPPRTIKRTRRRL [PWWP2B]")
3.64
>>> result_number("GGVLIDRYGRRTAIILSSCLLGLG [SLC2A12]")
2.74
>>> result_number("SYYNSPGLHVQHMGTSHGITRPSP [CCDC6]")
3.24
>>> result_number("VAETSGETIQGFWLLTKIDHWNNE [TPRG1]")
2.31
>>> result_number("MTSISLPSVMDPGAFETVLASAYT [ZBTB22]")
2.72
>>> result_number("VDRLPGLQGALDLLAVLCVDGSGR [ZSWIM9]")
2.27
>>> result_number("PDQEAEPQEAAGAQGRAGAPVPEP [EPB41L3]")
5.69
>>> result_number("QAEVLSRQITSPVSGINGDIRAKK [HNF4A]")
5.09
>>> result_number("HDYIVRSGERWLERYEIDSLIGKG [DYRK1B]")
3.11
>>> result_number("DDYTSAIEVQPNFEVPYYNRGLIL [TTC32]")
2.42
>>> result_number("QRGQEPLGPGALHFDLRDDDDAEE [TCF25]")
5.53
>>> result_number("ERAAAQARRELQAEREALQARLRD [ZBED3]")
5.33
>>> result_number("SYLMDHFIPSSHNDRDFLTRIFTE [PPEF2]")
2.51
>>> result_number("ERPWIKRMIFKLFSQETVMKFVPR [APMAP]")
2.48
>>> result_number("PYTELRKQPLRKYVTPSDFDQLKQ [EFHC1]")
3.51
>>> result_number("ISQHGDPLLSNTFTETNNHWPQGP [EMID1]")
4.08
>>> result_number("VLRCQLGDRLNVEVDAAPPVDLNK [KRT36]")
4.14
>>> result_number("TLLEAEPPHVLISRPSAPFTEASM [ESR2]")
3.46
>>> result_number("SFQLFVEGYKDADYWLRRFEAEPL [PI4K2A]")
2.35
>>> result_number("RALEEVEMKLQKNFLTQRENTIAG [C10orf62]")
3.73
>>> result_number("QDVVQAADLLLLTDLKTLCCEFLE [GAN]")
2.6
>>> result_number("ERLASANLRVLVDCILRDTSEDLR [TEKT4]")
2.05
>>> result_number("ESVADLLALEEPVDYKQSVLNVAG [SLC6A17]")
4.58
>>> result_number("SAVTSVRILQDEQYLMASDMAGKI [DCAF4]")
3.29
>>> result_number("GTEEKKKLIRDFDEKQQEANETLA [VTI1B]")
5.51
>>> result_number("QVQCHSYTGYCWCVTPNGRPISGT [SMOC2]")
2.37

----------
# Assay details: protein stability index of a GFP-peptide fusion (GPS, HEK-293T) (PSI 1-6); higher = more stable
# Particulars: treatment: MLN4924 1 uM, 8 h; c terminus: a fixed tail appended
protein stability index reference
Measured parameter: protein stability index

>>> result_number("YLYYDPDYSFLSLGVYSALREIAF [ATE1]")
2.67
>>> result_number("DDHLQQPLQNQKILKRTGQRYEHG [ZNF649]")
4.97
>>> result_number("VNPQDGTNTLTRIAENGVSERDSE [EHMT1]")
5.51
>>> result_number("VFISSYMVLAPVFGYLGDRYNRKY [SPNS1]")
2.87
>>> result_number("GGLAESELRPRRGRCGPQAARAAG [POMT2]")
3.75
>>> result_number("DEDLDLIPPKSVNPTCMCCQATSS [FAM219A]")
4.53
>>> result_number("TQELVAIKIIKNKKAFLNQAQIEL [DYRK1B]")
2.17
>>> result_number("RVWLKRDSGQYWPSVYHAMPSPCS [WDFY2]")
2.33
>>> result_number("EGVATYAAAVLFRMSEDKPQDYKK [CTNNB1]")
3.46
>>> result_number("MSWEKEEGKSRHVDFQCVKSKSIT [BTBD10]")
4.42
>>> result_number("MVQLDSIEDLEVTCTWKLPTLAKF [PRAME]")
2.75
>>> result_number("SPVTENSTSLSFLDSCNSLTPKST [MYBL2]")
4.77
>>> result_number("AFASGSDDATCRLYDLRADREVAI [GNB5]")
2.95
>>> result_number("RTPPKSPGDPSKDRAAKRLSLESE [TPPP]")
4.99
>>> result_number("LGLRSLIPAVLTVSMLGYPFILPD [MYORG]")
3.07
>>> result_number("TPKLDCFLSGMEAAPRTLAAHPPL [TBX6]")
3.48
>>> result_number("YLYTYDSQITDSEHNSSLVSQQTG [ZNF8]")
3.71
>>> result_number("QEVPHEGPMCDLLWSDPDDRGGWG [PPP2CA]")
4.61
>>> result_number("STKTPAPCSEFMEPSSDPSLLGEP [SPAG8]")
5.25
>>> result_number("ARQATNLKVNFFFERIMKYERLAR [FBXO39]")
2.41
>>> result_number("DDDAQILPSPVQACSEDSLFLRCS [DRICH1]")
4.02
>>> result_number("AGFCMFVLSLVKKHYRLQFYMFAW [CDS1]")
2.16
>>> result_number("PVGRSWHSLTPVSSDHLFLFGGFT [KLHDC2]")
1.87
>>> result_number("HEGKTDSERTDTAADGETTATEEL [EPB41L3]")
5.51
>>> result_number("PRLQELLGPSPQRDPQAVKERALS [ZNF263]")
4.65
>>> result_number("PRGARCSNGFPERDPPRPGPSRPA [GCH1]")
4.47
>>> result_number("AMPDPAGPDGHLPAVATLCDLFDR [ESRRA]")
4.4
>>> result_number("GVRCNTPAMGLQKKLRLNGGRNPY [LOXL2]")
2.95
>>> result_number("RHRSADVLGVADGVGGWRDYGVDP [PPTC7]")
4.07
>>> result_number("TDFYLIFNDVAKFLKQGDSADETT [CMTM3]")
2.6
>>> result_number("TPEAKDLINKMLTINPSKRITAAE [CAMK2A]")
4.42
>>> result_number("LLGLRTFVAFAAKLWSFFIYLLRR [CTDNEP1]")
4.16
>>> result_number("SKSLCHDEIENLLDSDHRELIGDY [CDC25B]")
4.31
>>> result_number("EQFHEAASKMESTIKPRRVEPVCS [CHCHD6]")
4.61
>>> result_number("ELIGDYSKAFLLQTVDGKHQDLKY [CDC25B]")
2.51
>>> result_number("HESEGGRTPLMKAARAGHVCTVQF [ANKRD17]")
2.6
>>> result_number("AAYFLLSTNDKTVKLWKVSERDKR [PPP2R2B]")
2.49
>>> result_number("TEVPYATFTEHPMKYTSEKFLEIC [TPRG1]")
2.75
>>> result_number("SGKVSSSSSSLGNKLQTLSPSHKG [ZC2HC1A]")
4.26
>>> result_number("SKDLYLISQMDSDQFIPIWTVANM [LARP4]")
1.92
>>> result_number("DQVPSMQDGSESFFFRHGHRGLLT [SPAG8]")
3.54
>>> result_number("PGPQDPEESASRQRFGEALQDQEK [ELOA2]")
5.68
>>> result_number("STPLMEAAQEGHLELVKYLLAAGA [ANKRD17]")
2.48
>>> result_number("NPMDMGTIKKRLENNYYWSASECM [BRD3]")
2.65
>>> result_number("LCPGDLIQAINGESTELMTHLEAQ [PDLIM4]")
4.54
>>> result_number("EAEALAGTGLVLDEQLNEFHCLWD [HDAC6]")
4.15
>>> result_number("VLMVGPNFRVGKKIGCGNFGELRL [CSNK1G1]")
2.69
>>> result_number("ILVLKTDSQDLVASFRVTTGTSNT [RBBP5]")
2.36
>>> result_number("CQLALQQKRETLSPLCLIPMVTSP [KCTD13]")
2.19
>>> result_number("LDQAPKARKYFERLPGGGWTLRRT [DYRK1B]")
3.33
>>> result_number("WQSESLPVSLSASQSWHTESLPVS [BCL2L13]")
3.35
>>> result_number("GLHRRPGAGHCSASPGPAAPTARM")
3.64
>>> result_number("RACSHLIRLMQRCWQGDPRVRPTF [RIPK4]")
2.83
